Source listed as patent US5631261A.

# tgt: NMDA receptor (N-methyl-D-aspartate) (Rattus norvegicus)
# Construct: isolated membrane material from rat cerebra
# assay.comment: Binding of 3H-5,7-dichlorokynurenic acid (displacement from rat cerebral membranes)
# measurement.conditions: buffer pH 7.4, on ice 30 minutes
quantity.kind: Ki (nM)
The reply should contain only the number, in nM.

Exercise: Consider the compound O=C(O)CCc1nc2c3ccc4ccccc4c3[nH]c(=O)n2n1 and give its recorded Ki.
Key: 300

Exercise: Consider the compound O=C(O)CCc1nc2c3cc4ccccc4cc3[nH]c(=O)n2n1 and give its recorded Ki.
Key: 400

Exercise: Consider the compound O=C(O)CCc1nc2c3ccc(C(F)(F)F)cc3[nH]c(=O)n2n1 and give its recorded Ki.
Key: 650

Exercise: Consider the compound O=C(O)CCCc1nc2c3ccc([N+](=O)[O-])cc3[nH]c(=O)n2n1 and give its recorded Ki.
Key: 500

Exercise: Consider the compound Cc1cc2[nH]c(=O)n3nc(CCC(=O)NCc4ccccc4)nc3c2cc1C and give its recorded Ki.
Key: 800
